Molecular target: human platelet PLA2 (Homo sapiens, UniProt P14555)
Construct: platelet acid extract PLA2
Sequence (P14555 21-144): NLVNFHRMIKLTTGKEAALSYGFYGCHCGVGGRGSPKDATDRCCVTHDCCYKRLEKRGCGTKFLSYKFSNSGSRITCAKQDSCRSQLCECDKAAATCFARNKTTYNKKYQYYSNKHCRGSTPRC
Test: in vitro isolated phospholipase A2 assay, human platelet PLA2
Conditions: Table IV; read-out: IC50 HP (human platelet)
Readout Type: pIC50
Convention used: pIC50 is expressed as -log10 of the molar concentration.

molecule="CCCCCC1CC1CC1CC1CCCCCCCC(=O)C1=C(O)COC1=O (stereo not shown)" assayed_target="human platelet PLA2 (Homo sapiens, UniProt P14555)" measured=4.88
molecule=O=C(CCCCCCC/C=C\c1ccc(Cl)cc1)C1=C(O)COC1=O assayed_target="human platelet PLA2 (Homo sapiens, UniProt P14555)" measured=5.12
molecule=CCCC/C=C\CCCCCCCC(=O)C1=C(O)COC1=O assayed_target="human platelet PLA2 (Homo sapiens, UniProt P14555)" measured=4.57

Now consider a different molecule.
Return the recorded pIC50 value; entry: CCCCC/C=C\C/C=C\CCCCCCCC(=O)C1=C(O)COC1=O
5.77

###

System: TPA-induced ear edema
Assay: 12-o-tetradecanoylphorbol acetate (TPA)-induced murine ear edema assay
Type: in vivo, mouse (Swiss Webster)
Settings: Mus musculus, sc, 4 h; TPA; subcutaneous; read-out: Subcutaneous ED50
Entries and their ED50 values follow.
Give the quantity in mg/kg, number only.

# example entries with known answers
compound="CCCCC/C=C\\C/C=C\\CCCCCCCC(=O)C1=C(O)COC1=O [Example 14]" reading_unit=mg/kg measured=118
compound="CCCCC/C=C\\C/C=C\\C/C=C\\CCCCC(=O)C1=C(O)COC1=O [Example 20]" reading_unit=mg/kg measured=31
compound="CCCCC/C=C\\C/C=C\\C/C=C\\CCCCC(=O)C1=C(O)CSC1=O [Example 50]" reading_unit=mg/kg measured=19

Kindly review the next compound as well.
Quickly give me recorded ED50 for CCCCC/C=C\C/C=C\CCCCCCCC(=O)C1=C(O)CSC1=O [Example 46]
46

###

Biological target: human platelet PLA2 (Homo sapiens, UniProt P14555)
Construct: platelet acid extract PLA2; from tissue; host or cells: human platelets, semipurified acid extract
Experiment: in vitro isolated phospholipase A2 assay, human platelet PLA2
Format: biochemical
Conditions: at 10 μM; + values given without explanation; read-out: % Inhibition HP (human platelet)
Readout Type: inhibition at 10 µM (%)
// units = %; emit number, no label

Examples from the recorded data:
compound="CCCCCCCC/C=C\\CCCCCCCCNC(=O)OC(CCC(=O)O)COC/C=C(\\C)CCC=C(C)C (centres unmarked) [Example 40A]" reading_unit=% measured=87.7
compound=COc1ccc(OC)c(/C=C/C(=O)C2=C(O)COC2=O)c1 reading_unit=% measured=11
compound=CCCC/C=C\CCCCCCCC(=O)C1=C(O)COC1=O reading_unit=% measured=58.3
compound=CCCCCCCCCCC/C=C\CCCCC(=O)C1=C(O)COC1=O reading_unit=% measured=46
compound=CCCCCCCC/C=C\CCCCCCCC(=O)C1=C(O)CSC1=O reading_unit=% measured=13.8
compound=CCCCCCCC/C=C/CCCCCCCC(=O)C1=C(O)COC1=O reading_unit=% measured=25.4
compound="CCCCCC1CC1CC1CC1CCCCCCCC(=O)C1=C(O)COC1=O (centres unmarked)" reading_unit=% measured=71
compound=CCCCCCCCCCC/C=C\CCCCC(=O)C1=C(O)CSC1=O reading_unit=% measured=15.2
compound="CCCCCCNC(=O)OCC(CCC(=O)C1=C(O)COC1=O)OC(=O)NCCCCCC (centres unmarked)" reading_unit=% measured=37.4
compound=O=C(CCCCCCCCOc1ccc(Cl)cc1)C1=C(O)COC1=O reading_unit=% measured=20.6

Look up human platelet PLA2 (Homo sapiens, UniProt P14555) data: inhibition at 10 µM of O=C(CCCCCCCCCc1ccc(Cl)c(Cl)c1)C1=C(O)COC1=O , then report it.
6.6

Provide inhibition at 10 µM, system human platelet PLA2 (Homo sapiens, UniProt P14555), entry CCC/C=C\CCCCCCCCC(=O)C1=C(O)COC1=O
52.7

For human platelet PLA2 (Homo sapiens, UniProt P14555), give inhibition at 10 µM of the listed compound: CCCCCCCCCCCCCCCCCC(=O)C1=C(O)COC1=O
37.4

Lab note: human platelet PLA2 (Homo sapiens, UniProt P14555) assay, enter inhibition at 10 µM for O=C(/C=C/c1ccccc1)C1=C(O)COC1=O here
3
